The values you see were collected from PubChem BioAssay.

test: growth suppression of beta-catenin knockout HCT116, pilot screen, human colon tumor cells (AID 823); details: CellTiter-Glo, 60 h, at 10 µM, hits give low values;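 also: 0% = wells killed by 20 µM Hyamine and 100% = untreated DMSO cell wells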
Results filed as inconclusive are left out.
List of viability values.
The reply should be a number in %, with the unit left off.

CN1C(=O)CS(=O)c2ccc(C(=O)NC3CC3)cc21 (stereo not given)    99.4

Look up viability for this compound: NS(=O)(=O)c1ccc(CCNC(=O)NC2(C(F)(F)F)Oc3ccccc3O2)cc1
63.4

Ok, now O=C(c1cncc(Br)c1)N1CCN(c2ccc(N3CCOCC3)nn2)CC1
98.1

Ok, now Cc1cc(C)n2nc(S(=O)(=O)NCCc3ccccc3)nc2n1
111

Ok, now CCN(CC)CCCN1C(=O)C(O)=C(C(C)=O)C1c1ccc(OC)cc1OC (stereo not given)
98.5
